System: Plasmodium berghei
Test Name: Screen against P. berghei liver stage (PbLuc), transformed with Luciferase, at 10uM
Type: functional, HepG2
Condition Context: tested at 10 uM
Screen size: about 69,000 compounds; about 8,600 (12%) showed an effect of 50% or more. Many of the other results were omitted from the sample, so strong results are more common in it than they were.
Flag rule - INHIBITION less than 50% flags MET; the remaining entries get NOT MET.

Solved cases below.
Is it true that INHIBITION reported for CC(C)Cn1c(=O)n(CCCn2cccn2)c2cc(C(=O)O)cnc21 is less than 50%?
MET

Another compound to check: CN(CCc1ccccn1)CCc1nccs1
MET

Same lookup for COc1ccc(NC(=O)c2cccc(CN3CCCC3C)c2)cc1OC (centres undefined) , please.
MET

What about this compound? CN(C)c1ncc(-c2ccc(C(N)=O)cc2)c(C2CNCCO2)n1 (centres undefined)
MET

Further cases:
Strictly below 50% in INHIBITION? CC(C)CN1CCC(NCCNc2cccnc2)CC1
NOT MET

Now the same for CC(C)CN1CCC(NC(C)c2ccccc2-n2cccn2)CC1 (centres undefined)
NOT MET

Then CN(C)c1ncc(-c2cccc(F)c2)c(C2CNCCO2)n1 (centres undefined) ?
MET

Repeat for the following compound: CN(CCc1ccncc1)CCc1nccs1
NOT MET

Follow-up item: CC1CN(C)CCN1Cc1cccc(C(=O)NCc2ccco2)c1 (centres undefined)
MET
